B1: Twister Ribozyme (parent)
chain: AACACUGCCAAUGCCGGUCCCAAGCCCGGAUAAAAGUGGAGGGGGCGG

# Variants of: B1
# assay_text: self-cleavage, relative activity (ratio to wild type); higher = more cleavage; co-transcriptional
In this scheme, each record receives a class according to its self-cleavage; the ranges are low range (below 0.1), mid range (0.1 to below 0.4), high range (0.4 or more)

Examples with answers:
Exercise: Which category does the recorded self-cleavage put A33C G48U in?
Solution: high range

Exercise: Could you do the same for C14A A32C , please?
Solution: high range

Exercise: // query: G13C U18G
Solution: low range

Exercise: Note, next up: U6G A22C
Solution: high range

Exercise: Proceed to C19G G47C
Solution: mid range

Further cases:
Exercise: Bin? G17A G24U
Solution: low range

Exercise: G7U G38A ?
Solution: low range

Exercise: What do you have for U31G ?
Solution: high range

Exercise: Also U18A C26G , if possible.
Solution: mid range

Exercise: Ok, now U18G U37C
Solution: low range

Exercise: What do you get for A2U A10U ?
Solution: high range
